# Assay Text: Volume of distribution at steady state in dog at 10 mg/kg, iv
# Type: ADME, organism-based, Canis lupus familiaris
# Parameters: dose 10 mg/kg, route intravenous
# Condition: in vivo, read-out: Vdss
Endpoint Name: Vd (L/kg)

Mol	Endpoint Name	Units Symbol	Experimental Result
CS(=O)(=O)c1ccc([C@@H](CC2CCCC2)C(=O)Nc2cnc([C@H](O)CO)cn2)cc1Cl	Vd	L/kg	1.69

###

# System Name: Hexokinase-4 (Homo sapiens) (UniProt P35557)
# Sequence (P35557 whole entry): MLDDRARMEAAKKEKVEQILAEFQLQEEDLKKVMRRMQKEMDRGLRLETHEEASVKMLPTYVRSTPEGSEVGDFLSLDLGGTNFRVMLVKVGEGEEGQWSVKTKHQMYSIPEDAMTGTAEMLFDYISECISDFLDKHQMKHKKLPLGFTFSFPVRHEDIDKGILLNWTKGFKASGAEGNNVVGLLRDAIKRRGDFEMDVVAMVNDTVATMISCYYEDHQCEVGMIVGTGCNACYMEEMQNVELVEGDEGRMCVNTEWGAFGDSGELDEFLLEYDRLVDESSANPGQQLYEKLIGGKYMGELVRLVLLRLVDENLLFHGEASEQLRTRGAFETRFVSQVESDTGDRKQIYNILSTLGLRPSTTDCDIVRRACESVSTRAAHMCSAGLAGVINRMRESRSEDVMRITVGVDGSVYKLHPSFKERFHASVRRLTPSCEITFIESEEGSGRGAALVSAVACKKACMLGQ
# Assay Text: Activation of glucokinase (unknown origin) using glucose as substrate assessed as stimulation concentration required to achieve 150% activity relative to control
Catalogue of molecules with associated Activity

Molecule	System Name	Activity
CS(=O)(=O)c1ccc([C@@H](CC2CCCC2)C(=O)Nc2cnc(OC[C@H](O)CO)cn2)cc1Cl	Hexokinase-4 (Homo sapiens) (UniProt P35557)	0.19 µM
C[S+]([O-])c1cnc(NC(=O)[C@H](CC2CCCC2)c2ccc(S(C)(=O)=O)c(Cl)c2)cn1 (some centres undefined)	Hexokinase-4 (Homo sapiens) (UniProt P35557)	0.4 µM
CSc1cnc(NC(=O)[C@H](CC2CCCC2)c2ccc(S(C)(=O)=O)c(Cl)c2)cn1	Hexokinase-4 (Homo sapiens) (UniProt P35557)	0.054 µM
CN(C)CC#Cc1cnc(NC(=O)[C@H](CC2CCCC2)c2ccc(S(C)(=O)=O)c(Cl)c2)cn1	Hexokinase-4 (Homo sapiens) (UniProt P35557)	0.11 µM
CS(=O)(=O)c1ccc(C(CC2CCOCC2)C(=O)Nc2cnccn2)cc1Cl (centres undefined)	Hexokinase-4 (Homo sapiens) (UniProt P35557)	1.4 µM
CS(=O)(=O)c1ccc([C@@H](CC2CCCC2)C(=O)Nc2cnc(C#CC3(O)CCOCC3)cn2)cc1Cl	Hexokinase-4 (Homo sapiens) (UniProt P35557)	0.075 µM
CC(C)(O)C#Cc1cnc(NC(=O)[C@H](CC2CCCC2)c2ccc(S(C)(=O)=O)c(Cl)c2)cn1	Hexokinase-4 (Homo sapiens) (UniProt P35557)	0.056 µM
C/C(=N/O)c1cnc(NC(=O)[C@H](CC2CCCC2)c2ccc(S(C)(=O)=O)c(Cl)c2)cn1	Hexokinase-4 (Homo sapiens) (UniProt P35557)	0.059 µM
CS(=O)(=O)c1ccc(C(CC2CCOC2)C(=O)Nc2cnccn2)cc1Cl (centres undefined)	Hexokinase-4 (Homo sapiens) (UniProt P35557)	3.6 µM

###

# Assay Text: AUC (0 to infinity) in C57Bl/6J mouse at 30 mg/kg, po
# Format: ADME, organism-based
# Set-up: time infinity, dose 30 mg/kg, route oral
# Condition: plasma

Mol	AUC(0-inf)
CS(=O)(=O)c1ccc([C@@H](CC2CCCC2)C(=O)Nc2cnc([C@H](O)CO)cn2)cc1Cl	12100 ng·h/mL

###

# Assay Text: AUC (0 to infinity) in C57Bl/6J mouse at 10 mg/kg, iv
# Format: ADME, organism-based
# Design: time infinity, dose 10 mg/kg, route intravenous
# Condition: plasma

Mol	AUC(0-inf) [ng·h/mL]
CS(=O)(=O)c1ccc([C@@H](CC2CCCC2)C(=O)Nc2cnc([C@H](O)CO)cn2)cc1Cl	8010

###

# Assay Text: Tmax in dog at 30 mg/kg, po
# Type: ADME, organism-based, Canis lupus familiaris
# Set-up: dose 30 mg/kg, route oral
# Condition: in vivo

Mol	Units Symbol	Tmax
CS(=O)(=O)c1ccc([C@@H](CC2CCCC2)C(=O)Nc2cnc([C@H](O)CO)cn2)cc1Cl	h	7.3
